Listing of recorded TGI by entry.
system: OVCAR-8 ovarian; assay: NCI tumour cell line growth inhibition, 48 h
measuredParameter: TGI

# compound, result
rows = [
    ("O=C1OC(CCCl)(c2ccccc2)CC1CN1CCOCC1 (configuration not stated)", "38.5 µM"),
    ("C[C@]12CCC3[C@@H](CC[C@@H]4c5nonc5CC[C@]34C)C1CCC(=O)N2 (some centres not stated)", "> 100 µM"),
    ("COc1cc(OC)c(/C=C2\\N=C(C)N(Nc3nnc(NN4C(=O)/C(=C/c5c(OC)cc(OC)cc5OC)N=C4C)c4ccccc34)C2=O)c(OC)c1", "> 100 µM"),
    ("O=c1oc2ccccc2c2c(=O)c3ccc(OC/C(=N/O)c4ccc(Cl)cc4)cc3oc12", "65.1 µM"),
    ("O=c1cc(-c2cccc(Cl)c2)[nH]c2ncccc12", "> 100 µM"),
    ("COC(=O)C1CC2(CCC1=O)Cc1ccccc1C2=O (configuration not stated)", "> 100 µM"),
    ("Cn1cnc2nc(Cl)nc(NC(C)(C)C(C)(C)O)c21", "> 100 µM"),
]

----------
test system: SF-268 CNS; test: NCI tumour cell line growth inhibition, 48 h
Listing of recorded TGI by entry.

# compound, TGI
data = [
    ("O=C(C1CCCCC1)[C@@H]1[C@]2(C(=O)NC3CCCCC32)[C@@H]2CCCN2[C@@]12C(=O)NC1CCC(Cl)CC12 (some centres not stated)", "288 µM"),
    ("CNC(=O)N1CN(c2ccccc2)C2(CCN(CCCC(=O)c3ccc(F)cc3)CC2)C1=O", "> 100 µM"),
    ("CC(C)[C@@H]1NC(=O)[C@H]2N=C(O[C@@H]2C)[C@@H]2CCCN2C(=O)[C@H](Cc2ccccc2)NC(=O)[C@@H]2CSC(=N2)[C@@H](Cc2ccccc2)NC(=O)[C@@H]2CSC1=N2", "> 50 µM"),
    ("CCCCCCCCCCCC(=O)OCCOCCOCCOCCOCCOCc1ccc(OC)cc1", "> 100 µM"),
    ("O=C(N=S(NC(=O)c1ccccc1)C(Cl)(Cl)Cl)c1ccccc1 (configuration not stated)", "> 100 µM"),
    ("O[C@H]1CO[C@H]2[C@@H]1OC[C@@H]2Oc1ccc(Nc2ccnc(Nc3ccc(O[C@H]4CO[C@H]5[C@@H]4OC[C@@H]5O)c(Cl)c3)n2)cc1Cl", "4.98 µM"),
    ("CC1C(c2ccccc2)OP(=O)(OC(C#N)c2ccccc2)N1C (configuration not stated)", "> 100 µM"),
]

----------
tested on: UACC-62 melanoma; assay: NCI tumour cell line growth inhibition, 48 h
measuredParameter: TGI (µM)

# compound, reportedRelation, numericReadout
rows = [
    ("CC12NN=NC1C(=O)NC2=O (centres undefined)", ">", 100),
    ("COC(=O)C1CC2(CCC1=O)Cc1ccccc1C2=O (centres undefined)", ">", 100),
    ("NC(N)=N/N=C/c1c(-c2ccccc2)nc2n1ccc1nc(-c3ccccc3)c(/C=N/N=C(N)N)n12", ">", 100),
    ("C=CC(=O)N(C)[C@H]1C[C@H]2OC(C)(C1OC)n1c3ccccc3c3c4c(c5c6ccccc6n2c5c31)C(=O)NC4 (some centres undefined)", "=", 0.835),
    ("Clc1cc(Cl)c(OCC#CI)cc1Cl", "=", 19.4),
    ("CCCC(=O)NC1=C(NCC)C(=O)c2ccccc2C1=O", ">", 100),
    ("COc1ccc(NC2Oc3cc4c(cc3C(c3cccc(OC)c3OC)C2C)OCO4)cc1 (centres undefined)", ">", 100),
    ("CCCCCC/C=C\\CCCCCCCCCc1cccc(O)c1C(=O)O", ">", 100),
    ("CN(C)c1nc(=Nc2ccc3ccccc3c2)ss1", ">", 100),
    ("O=C(c1ccccc1)c1ccc(COc2ccc(C(c3c(O)c4ccccc4oc3=O)c3c(O)c4ccccc4oc3=O)cc2)cc1", "=", 30),
    ("O=c1ccc2cc(O)c(O)cc2o1", ">", 100),
    ("Cn1c(/C=C(\\O)c2ccc(Cl)cc2)nc2ccccc21", ">", 100),
    ("Brc1cccc(C2SCc3nc4ccccc4n32)c1 (centres undefined)", "=", 31),
    ("O[C@H]1CO[C@H]2[C@@H]1OC[C@@H]2Oc1ccc(Nc2ccnc(Nc3ccc(O[C@H]4CO[C@H]5[C@@H]4OC[C@@H]5O)c(Cl)c3)n2)cc1Cl", "=", 2.75),
    ("COc1cccc(NC(=O)c2sc3nc4c(cc3c2N)CN(Cc2ccccc2)CC4)c1", "=", 29.8),
    ("COc1cc2c(c(OC)c1OC)-c1ncc3cc(OC)c(OC)c(OC)c3c1C2", "=", 34),
    ("CCCCCCCCCCCCCCCCCC(=O)OCC(COC1OC(COP(=O)(O)O)C(O)C(O)C1O)OC(=O)CCCCCCCCCCCCCCCCC (centres undefined)", "=", 16.3),
    ("O=C(NCCCCCCCCNC(=O)c1cc(-c2ccccc2)nc2ccccc12)c1cc(-c2ccccc2)nc2ccccc12", ">", 100),
    ("N#CC(c1ccccc1)c1nc2ccc(=N)cc-2n(O)c1C(C#N)c1ccccc1 (centres undefined)", ">", 100),
]
